This collection of values is drawn from the EternaBench riboswitch data.

The entries below come with measured apparent Kd values attached.
System: MS2 coat protein
Experiment: apparent Kd, MS2 coat protein; higher = weaker binding; RNA-MaP array; FMN 200 µM where present
Conditions: designed as: OFF switch for flavin mononucleotide; no ligand
Hi! Could you send only the number? It should be in nM, unit omitted.

Please review the following examples before continuing.
Task: What measured apparent Kd goes with AAACAUGUCCGAGGAUAUCUGGAAACAUUUCCAAGAGAAGGCGGACAUGAGGAUCACCCAUGUCUCUCCUCAUCAAAUCCAAGU ?
Output: 24.6

Task: Please answer likewise for UCAUGAUAUGUAGGAUAUCACAUUUAUUGAUUAAUAUAUGAAUAUAGAAUUUGAGAAGGACAUUUACAUGAGGAUCACCCAUGU
Output: 15.8

Task: Please answer likewise for UUAUGUUUUGUAGGAUAUCAUAAGUUAUGUAUUAUAAUUGAAAUUUUGUUAUGAGAAGGACAUUUACAUGAGGAUCACCCAUGU
Output: 13.6

Task: Please answer likewise for UCAUUAUAAAUCCAUCAUAACUACAUGAGGAUCACCCAUGUGCAGGAUAUCGAUAAUUUAACUAACGAGAAGGGCAUUUACAGA
Output: 37.6

Task: Please answer likewise for GGAUGAGAAACUCAUCCAAUUCGAACAUGAGGAUCACCCAUGUAGGAUAUGCUACUCAAAGAGUAGCAGAAGGACAUGUGCCUU
Output: 25

***
Task: What measured apparent Kd goes with GGUGGCGUGAUAACGCUAGAUAUAACAUGAGGAUCACCCAUGUAGGAUAUCCCGCCGUGAGGGCGGGAGAAGGACAACCGAUGG ?
Output: 37.1

Task: Please answer likewise for UGUACCGUUGGAACGCGUCGAGUACAUGAGGAUCACCCAUGUCAGGAUAUGUGGCGAAAGGUAGCACAGAAGGGACAUAGAAGA
Output: 32.6

Task: Please answer likewise for AACUACUCUGUGAGGAUAUGCGAUCGUUGAUCAAAGCAGAAGGCACAUGAGGAUCACCCAUGUUCCUACGAGGG
Output: 29.3

----------
The entries below come with measured apparent Kd values attached.
System: MS2 coat protein
Test: apparent Kd, MS2 coat protein; higher = weaker binding; RNA-MaP array
Conditions: ligand present: flavin mononucleotide; designed as: OFF switch for flavin mononucleotide
Hi! Could you send only the number? It should be in nM, unit omitted.

Please review the following examples before continuing.
Task: What measured apparent Kd goes with UCGUCAUUGAACAGCACAUGAGGAUCACCCAUGUUUAGAUCUAGAAGGCCUUUCUCGAAGACCCAGGAGGAUAUAGUGAAGUGG ?
Output: 18.7

Task: Please answer likewise for AGGAACGAAGGAUAUGAUGAAUAGUACAUGAGGAUCACCCAUGUGGCCACCUUAGACAUCUCAGAAGGACGAUACU
Output: 25.1

Task: Please answer likewise for UCGGUAUAUACAGGAUAUGGUCAAUACAUGAGGAUCACCCAUGUUAGAGCGGCAAAUAGGAUCUUCCAGAAGGGUACUUGCUUA
Output: 11.5

Task: Please answer likewise for AAUGGGUGAGAUCGUUUCAACAUGAGGAUCACCCAUGUUGACAGAAGGAGGUCUAAAUAGCUACCCUAGGAUAUGUCCAUGCGA
Output: 31.9

Task: Please answer likewise for UCACACGUUGUAGGAUAUGUCACGCAUAGAACAUGAGGAUCACCCAUGUAUCCCUGUCAUGCCAGACAGAAGGACACUAACGCG
Output: 129

Task: Please answer likewise for GAGGUAACGUAGAAGGCGAGGGCAAUACCUGUUCGAGGAUAUACUAUUAGACAUGAGGAUCACCCAUGUGGAGAUUGAUCGUCA
Output: 339

Now take the following sequence into account.
Task: What measured apparent Kd goes with UUCCUUGUCGAGAAGGAAUGGCACUUGAGGCGAUUAGGAUAUCGAUACAUGAGGAUCACCCAUGUUGUGUCUCAUAGUAUGACA ?
Output: 12.4

----------
System: MS2 coat protein
Assay: apparent Kd, MS2 coat protein; higher = weaker binding; RNA-MaP array; FMN 200 µM where present
Settings: ligand present: flavin mononucleotide; designed as: OFF switch for flavin mononucleotide
The entries below come with measured apparent Kd values attached.
Lab note: write values as number then unit, every time.

Please review the following examples before continuing.
Task: What measured apparent Kd goes with UACCGCUCUGAAGGAUAUCCACUGGGAUGCUGGAUGUAUGAGCGUACAUGAGGAUCACCCAUGUAGGAGAAGGUCAGGCAUUCC ?
Output: 7.84 nM

Task: Please answer likewise for AAACAUGUCCGAGGAUAUCUGGAAACAUUUCCAAGAGAAGGCGGACAUGAGGAUCACCCAUGUCUCUCCUCAUCAAAUCCAAGU
Output: 287 nM

Task: Please answer likewise for AGUAUGCGGCAGGAUAUCCAUCCGCGAAAAGGUGGAGAAGGGCUGACAUGAGGAUCACCCAUGUGCGUCUUGUA
Output: 31 nM

Now take the following sequence into account.
Task: What measured apparent Kd goes with GUGCGCGGCUAGGAUAUUGUGGGUUUUUGUCUGCGAGAAGGUGCCACAUGAGGAUCACCCAUGUGGUGUUGCUC ?
Output: 30 nM

----------
System: MS2 coat protein
Test: apparent Kd, MS2 coat protein; higher = weaker binding; RNA-MaP array
Details: ligand present: flavin mononucleotide; designed as: ON switch for flavin mononucleotide
OUTCOME MEASURE: apparent Kd (nM)
Hi! Could you send only the number? It should be in nM, unit omitted.

Please review the following examples before continuing.
Task: What measured apparent Kd goes with ACAUGAGGAUCACCCAUGUAAAUGAUAUGUCACCAUGAUGUUAGAAGGAAAGCGGAAAGUCAAUUUUAGGAUAUAAUGUAUUGA ?
Output: 8.51

Task: Please answer likewise for GGGAGAAAUGGAGGAUAUAUUAAAGCACAGCUGACAUGAGGAUCACCCAUGUGAAUUAAAGAUGCAUAGAAGGCCAAACUACAA
Output: 11.8

Task: Please answer likewise for AGAAGCUAAUCCGGCUCAUACAUGAGGAUCACCCAUGUUUUCAGAAGGGAGUCCGUCGCACCGACUCAGGAUAUGAUUCAAGAA
Output: 21.8

Now take the following sequence into account.
Task: What measured apparent Kd goes with GUGCAAAACCAGAAGGGACAUUAAAGGGUAAAGUCAGGAUAUGGCACAUGAGGAUCACCCAUGUAGACUAGACGCGUUAUUUUC ?
Output: 9.11

----------
System: MS2 coat protein
Test: apparent Kd, MS2 coat protein; higher = weaker binding; RNA-MaP array
Conditions: designed as: OFF switch for flavin mononucleotide; no ligand
Use 30 nM as the dividing line for apparent Kd, with the line itself on the yes side and lower values as no.

Task: I'd appreciate it if you could say whether CUAAGAUAAGAAGGAUAUAAAACAUGAGGAUCACCCAUGUAAAAGUACAUCACACUACAAAUGGAUUAGAAGGUCUUAAUAACC has apparent Kd at least equal to 30 nM.
Output: no

Task: Please answer likewise for GGACGGUGGUGAGGAUAUUGUCACAUGAGGAUCACCCAUGUCGUCUGGGAGCGGACUCCUCGGUCCAAGAAGGCACGACCAGCC
Output: yes

Task: Please answer likewise for CUCAGGCUGCGAGGAUAUCCGUCGAAUCAAACAGGAGAAGGCGCAUACAUGAGGAUCACCCAUGUGCUGACUUGUCCGUGAAUC
Output: no

Task: Please answer likewise for UGUGGAACGGAAGGAUAUGGUCACCGAUGGUCUCCAGAAGGUCCGGGUGACCGAACAAUACAUGAGGAUCACCCAUGUAGCAAA
Output: no

Task: Please answer likewise for CCUCGUAAUGAGGAUAUUAGGAAUUCUGGUCCAUAAGAAGGCAUGACAUGAGGAUCACCCAUGUAGCGGAUGGG
Output: yes

***
Task: I'd appreciate it if you could say whether GCAAAUGCUGAGAAGGUGAUGAAUAACUCCUCGAUGUAACUUGACAUGAGGAUCACCCAUGUCAUCAAGGAUAUCAAAGUGAAC has apparent Kd at least equal to 30 nM.
Output: no

Task: Please answer likewise for AAUGGGUGAGAUCGUUUCAACAUGAGGAUCACCCAUGUUGACAGAAGGAGGUCUAAAUAGCUACCCUAGGAUAUGUCCAUGCGA
Output: no

Task: Please answer likewise for UAGGUGCUCUAAGGAUAUUAUACAUGAGGAUCACCCAUGUGGCGACCAAGGGUAGAAGAGGAACUUAAGAAGGUAGAUGUAUAG
Output: yes

Task: Please answer likewise for GAGGUAACGUAGAAGGCGAGGGCAAUACCUGUUCGAGGAUAUACUAUUAGACAUGAGGAUCACCCAUGUGGAGAUUGAUCGUCA
Output: yes

Task: Please answer likewise for AUGAUGUAAGGAUAUUGCGCGAUGUUUACCAUUGGUCUGCACAAGAAGGUACAUGAGGAUCACCCAUGUGGGCC
Output: no

Task: Please answer likewise for AUACCAUCCCAAGGAUAUGUUACCUAGACAUGAGGAUCACCCAUGUGAGAUUAGAGCUGUCGCGUACAGAAGGUGGUGAUGACA
Output: no

Task: Please answer likewise for AGGAACGAAGGAUAUGAUGAAUAGUACAUGAGGAUCACCCAUGUGGCCACCUUAGACAUCUCAGAAGGACGAUACU
Output: yes

Task: Please answer likewise for UCUUGAGGCUAGGAUAUCAUACAUAAAAGCAACUGAGAAGGAGCCACAUGAGGAUCACCCAUGUAUCCGUUAUG
Output: no

Task: Please answer likewise for CCGCUUGCAGGAUAUACAUGAGGAUCACCCAUGUUAAGAGAACAGUAACAAAGCAUUUGUAGAAGGGCAAUACG
Output: no

Task: Please answer likewise for GUUCGGCGAGGAUAUCUGCUACAGUACAUGAGGAUCACCCAUGUGGGUUAUGUCCGGUCCAGAGAAGGCGCUGCCA
Output: yes

Task: Please answer likewise for AUCAUGAUUUUAGGAUAUAUGACGUUAUACAAUGGACAUGAGGAUCACCCAUGUAGUCGCGCUCUAUAGAAGGAAAGCUCAGUU
Output: yes

Task: Please answer likewise for CAAUGACCCAAGGAUAUCUGCAGACGCGAGCCCAGAGAAGGUGGGACAUGAGGAUCACCCAUGUUCUCGUGUGA
Output: yes
